Items are presented alongside their recorded percent viability.
system: MCF10A; test: percent viability (nuclei count relative to siNT); higher = more viable cells; settings: 20 nM; 72 h
Field: numeric (%). Do not append units.

>>> endpoint_result("ACCUCCUGUGUGCAUGGAUUA [hsa-miR-660-3p]")
37.2
>>> endpoint_result("CAAGCUUGUAUCUAUAGGUAUG [hsa-miR-100-3p]")
77.2
>>> endpoint_result("ACGGAUGUUUGAGCAUGUGCUA [hsa-miR-105-3p]")
117

Recorded percent viability (sequence UCCCUCUCCCACCCCUUGCAG [hsa-miR-6892-3p] ): 52.2

For record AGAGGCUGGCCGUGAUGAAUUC [hsa-miR-485-5p] the listed percent viability is 216

Notebook: AAUCACUAACCACACGGCCAGG [hsa-miR-34c-3p] , percent viability read as 70.3

The recorded percent viability for GUAAGGGACCGGAGAGUAGGA [hsa-miR-6892-5p] is 22.3

Entry under test: CAGUUCAGAAGUGUUCCUGAGU [hsa-miR-5000-5p] . Its percent viability was 32.3

The sequence identified as AACGGGAAUGCAGGCUGUAUCU [hsa-miR-4681] registered its percent viability at 30.6

Memo: ACAAGGUGUGCAUGCCUGACC [hsa-miR-4761-5p] , reported percent viability: 18.1

Measured percent viability, UCUAUUCCCCACUCUCCCCAG [hsa-miR-6731-3p] : 32.5
